Reference for the values: the nanobody polyreactivity screen of Harvey et al. (2022)

Experiment: yeast display, Sf9 membrane polyspecificity reagent, FACS + sequencing; frameworks hold sequencing errors
reported property: polyreactivity (PSR sort gate)

Solved cases below.
QVQLVESGGGLVQAGGSLRLSCAASGSTFYIYAMGWYRQAPGKERELVAAIDWNDGSTYYADSVKARFTISRDNAKNTVYLQMNSLKPEDTAVYYCAAAIYIYRGGTYDYWGQGTQVTVSS :: high polyreactivity
QVQLVESGGGLVQAGGSLRLSCAASGRIIYSYAMGWYRQAPGKERELVATITASGGRTYYADSVKGRFTISRDNAKNTVYLQMHSLKQEDSAVYYCNARYYGSFRRRYDYWGQGTQVTVSS :: high polyreactivity
QVQLVESGVGLVQAGGSLRLICAATGYTFKRTAMRWSRQAPGKEREFVAAINIRGSSTYYADSVKGRFTISRDNPKNTVYLQMISLKPEDTAVYYCNAVTRYGYYWGEGTQVTVSS :: high polyreactivity
QVQLVESGGGLVQAGGSLRLSCAASGSIFYKYMGWNRQAPGKERELVAAISWSGGRTYYADSVKGRFTISRDNAKNTVYLQMNSLKPEDTAVYYCNRVVLWRIGDKAFEYWGQGTQVTVSS :: high polyreactivity
QVQLVESGGGLVQAGCSLSISCAASGSTFFRYAMGLYRQAPGKERELVAAISKSGASTYYADSVKGSFTISRDNAKNTVYLQMNRLKPEDTAVYYCNADVKKSSAREWQYCYDYWGQGTQVTVSS :: low polyreactivity

The following sequences each have a reported value; give each one's polyreactivity (PSR sort gate).
1. QVQLVESGGGLVQAGGSLRLSCAASGFTIGYNVMGWYRQAPGKERELVATISWNGARTYYADSVKGRFTISRDNAKNTVYLQMNSLKPEDTAVYYCAARRYYRGEYDYWGQGTQVTVSS
2. QVQLVESGGGLVQAGGSLRLSCAASGFIFKAYAMGWYRHAPGKERELVAAITSSGGRTYDADSVKGRFTISRDNAKNTVYLQKNSLKPEDTAVYYCNARGVLRTSLYRYDYWGQGTQVTVSS

Reply |
["low polyreactivity", "high polyreactivity"]

Quick request: polyreactivity (PSR sort gate) for each listed item, please.
1. QVQLVESGGGLVQAGGSLRLSCAASGFTFGWYAMGWYRQAPGKEREFVATITYSGGSTYYADSVKGRFTISRDNAKNTVYLQMNSLKPEDTAVYYCAAARYWYRRFDYWGQGTQVTVSS
2. QDQLVESGGGIVQAGGSLRLSCAASGRTFTAYAMGWYRQAPGKERELVAAISSSGGSTYYADSEKGRFTISRDNAKNTVYLQMNSLKPDDTAVYYCAALGGYRYGYDYWGQGTQVTVSS
3. QVHLQESGDGLVQPVGSQRLSCAASGYISGNYYMGWYRQAPGTERELVAGIDAFGSSTNYADCVKGRFTISRYNAKNSVYLQMYRLKPEDTAVYYCAAPPDGDRLFSYWGQGTQVTVSS
4. QVQLVESGGGLDQAGGSLRLSCAASGRIIRFYAMAWYRQAPGKERELVAAISSRGGSTYYADSVKGRFTISRDNAKNTVYLQKNSLKPEDTAVYYCAKKTWRDYAYNYWGQGTQVTVSS

Reply |
1: high polyreactivity; 2: high polyreactivity; 3: low polyreactivity; 4: high polyreactivity

Please report polyreactivity (PSR sort gate) for every entry that follows.
1. QVQLQESAGGLEQAGGSLRLSCAASAYISDIGTKGWYRQAPRKEREFVATIVVGSTTNYADSVKGRFTISRDNAKNTVYLQPESGRYRGVFLRGWLLPVGKFTYWGQGTQETVSS
2. QLQLVESGGGLVQAGGSLRLSCAASVRTFQNYAMGWYRQAPGKEREFVAAITWRVGTTYYADSVKGRFTISRDNAKNTVYLQMNSLKPEDTAVYYCAARSRTVRYDYWGQGSQVTVSS
3. QVQLVESCGGLVQAGGSLRLSCDASGITFNYNAMGWYRQAPGKERELVARITWSGTRTYYADSVKGRFTISRDNAKNTVYLQMNSLKPEDTAVYYCNAGPYARYYWGQGTQVTVSS

Reply |
1: low polyreactivity; 2: high polyreactivity; 3: high polyreactivity

Give polyreactivity (PSR sort gate) for all sequences that follow.
1. QVQLVESGGGLVQAGGSLRLSCAASGIIFWFYAMGWNRQAPGKERELVAAISGDGDSTYYADSVKGRFTISRDNAKNTVYLQMNSLKPEDTAVYYCAAEWDPVFATDEDDYWGQGTQVTVSS
2. QVQLVESGGGLVQAGGSLRLSSASTGLIFRWYEMGRYRQPPGKETELVAAISRRGGTTNYADSVKGRFTISRDIAKITVYLQMNSLKPEDTAVYYCAADYQSVGVAEYEYWGQGTQVTVSS
3. QVQLVESGGGLVQAGGSLRLSCAASGRILPFNAMGWYRPAPGKERELVAAIRWRGSSTYYADSVKGRFTISRDNAKNTVYLQMNSLKPEDTAVYYCAAPSSVRGKVISADYGYWGQGTQVTVSS
4. QVQLVESGGRIFQAGGSLRLSCAASGLIFPYYVMGWYRQAPGKERELVADITWSGGRTYYADSVKGRFTISRDNAKNTVYLQMNSLKPEDTSVYYCKAETGGVYDNYYYVGEYYFWGQGTQVTVSS
5. QVQLVESGGGLVQAGGSLRLSCAASGSIFIRNAMGWYRQAPGKERELVAAITSGGNTYYADSVKGRFTISRDNAKNTVYFQMNSLKPEDTAVWGQGTQVTLSS
6. QVQLVESGGGLVQAGGSLRLSCAASGSTFSFYAMGWYRQAPGKERELVAAIDSGGRTKYADSVKGRFTISRDNAKNTVYLLMNSLKPEDTAVYYCAAVFRGWWLYDYWGQGTQVTVSS

Reply |
1. low polyreactivity
2. high polyreactivity
3. high polyreactivity
4. low polyreactivity
5. low polyreactivity
6. low polyreactivity

Lab note: QVQLVESGGGLVQAGGSLRLSCAASGRTFRGNAMGWYRQAPGKERELVAAISWSGGRTYYADSVKGRFTISRDNAKNTVYLQMNSLKPEDTAVYYCAAGVPKNGQAGYDYWGQGTQVTVSS gave polyreactivity (PSR sort gate) of high polyreactivity
